System: immortalized murine embryonic fibroblasts (Mef)
Assay: Pooled negative selection RNAi screening (deep sequencing)
Format: cell-based
Conditions: deep sequencing reads, on dox compared to initial representation
Excerpt: In addition to the analysis of single shRNAs for inhibitory effects in vitro and in vivo, the combination of tet-on competent cancer models and tet-regulatable shRNA expression vectors allowing for monitoring shRNA expression through fluorescent and other reporter genes (e.g. TRMPV and derivates) facilitates pooled shRNA negative selection screening (FIG. 37). […]
PARAMETER: Fold depletion in Mef (Fold)
Note: unit Fold is implicit; provide only the numeric part.

Some solved entries appear below for comparison.
MOLECULE	ASSAY_VALUE
Fosb.1165: shRNA, SEQ ID NO: 123 (nucleic acid) TGCTGTTGACAGTGAGCGCCAGGCGGAAACTGATCAGCTTTAGTGAAGCCACAGATGTAAAGCTGATCAGTTTCCGCCTGATGCCTACTGCCTCGGA	3.61
F10.1044: shRNA, SEQ ID NO: 117 (nucleic acid) TGCTGTTGACAGTGAGCGACACCATCTTGAATGAGTTCTATAGTGAAGCCACAGATGTATAGAACTCATTCAAGATGGTGCTGCCTACTGCCTCGGA	1.25
Aspa.996: shRNA, SEQ ID NO: 92 (nucleic acid) TGCTGTTGACAGTGAGCGCATGAAGCTGCATATTATGAAATAGTGAAGCCACAGATGTATTTCATAATATGCAGCTTCATTTGCCTACTGCCTCGGA	0.68
Lin28.2270: neutral control shRNA, SEQ ID NO: 200 (nucleic acid) TGCTGTTGACAGTGAGCGCAACGGGACAAATGCAATAGAATAGTGAAGCCACAGATGTATTCTATTGCATTTGTCCCGTTTTGCCTACTGCCTCGGA	1.10
Arf3.1357: shRNA, SEQ ID NO: 91 (nucleic acid) TGCTGTTGACAGTGAGCGACCCTTCTGTGTTGGTGAGATATAGTGAAGCCACAGATGTATATCTCACCAACACAGAAGGGCTGCCTACTGCCTCGGA	0.86

Task: Quick check: Fold depletion in Mef of Mcl1.1334: shRNA, SEQ ID NO: 139 (also SEQ ID NO: 43) (nucleic acid) TGCTGTTGACAGTGAGCGAAAGAGTCACTGTCTGAATGAATAGTGAAGCCACAGATGTATTCATTCAGACAGTGACTCTTCTGCCTACTGCCTCGGA ?
Result: 3.00

Task: Next molecule up: Slc12a5.3582: shRNA, SEQ ID NO: 179 (nucleic acid) TGCTGTTGACAGTGAGCGAAACGAGGTCATCGTGAATAAATAGTGAAGCCACAGATGTATTTATTCACGATGACCTCGTTCTGCCTACTGCCTCGGA
Result: 2.21

Task: Consider next the molecule Pgam1.1811: shRNA, SEQ ID NO: 164 (nucleic acid) TGCTGTTGACAGTGAGCGCAAGGAGTGATGTGCAATACTTTAGTGAAGCCACAGATGTAAAGTATTGCACATCACTCCTTTTGCCTACTGCCTCGGA in the same way.
Result: 0.17

Task: Repeat for the following molecule: Luciferase.1309: neutral control shRNA, SEQ ID NO: 202 (nucleic acid) TGCTGTTGACAGTGAGCGCCCGCCTGAAGTCTCTGATTAATAGTGAAGCCACAGATGTATTAATCAGAGACTTCAGGCGGTTGCCTACTGCCTCGGA
Result: 0.52

Task: Next molecule up: Dsp.6155: shRNA, SEQ ID NO: 114 (nucleic acid) TGCTGTTGACAGTGAGCGCCAGGAAGTTCTTCGATCAATATAGTGAAGCCACAGATGTATATTGATCGAAGAACTTCCTGTTGCCTACTGCCTCGGA
Result: 0.60

Task: Please answer likewise for Mef2c.1872: shRNA, SEQ ID NO: 141 (nucleic acid) TGCTGTTGACAGTGAGCGCTGCCTCAGTGATACAGTATAATAGTGAAGCCACAGATGTATTATACTGTATCACTGAGGCAATGCCTACTGCCTCGGA
Result: 0.77

Task: Dio2.2087: shRNA, SEQ ID NO: 112 (nucleic acid) TGCTGTTGACAGTGAGCGCCAGGAATTTGGTTAAATGGAATAGTGAAGCCACAGATGTATTCCATTTAACCAAATTCCTGTTGCCTACTGCCTCGGA ?
Result: 2.52

Task: Param item: Pygl.1463: shRNA, SEQ ID NO: 171 (nucleic acid) TGCTGTTGACAGTGAGCGCACCAGACAAGTTCCAGAATAATAGTGAAGCCACAGATGTATTATTCTGGAACTTGTCTGGTTTGCCTACTGCCTCGGA
Result: 1.94

Sourced from patent US8895526B2
